# Tested on: Fibroblast
# assay_summary: Multiplex assay against human fibroblast
# Type: toxicity, cell-based
# protocol_conditions: 12 h, 10 µM, compound concentration 10 uM, replicate 2
The following ranges of Population Mitochondria Different-Phenotype (%) define the classes used here: b0 (below 30%), b1 (30% to below 90%), b2 (90% or more)

molecule: CN1CCCC(n2nc(Cc3ccc(Cl)cc3)c3ccccc3c2=O)CC1.Cl (centres undefined) [AZELASTINE HYDROCHLORIDE]
qualitative_label: b2
--
molecule: CN1CCN(CCOc2cc(OC3CCOCC3)c3c(Nc4c(Cl)ccc5c4OCO5)ncnc3c2)CC1
qualitative_label: b2
--
molecule: COc1cc(-n2cnc3cc(-c4ccc(Cl)cc4)sc3c2=O)ccc1OCCN1CCCC1
qualitative_label: b2
--
molecule: CN(C)CC#Cc1ccc(OCCCc2sc(N3CCc4cccc(C(=O)Nc5nc6ccccc6s5)c4C3)nc2C(=O)O)c(F)c1
qualitative_label: b0
--
molecule: O=C1NCN(c2ccccc2)C12CCN(CCCOc1ccc(F)cc1)CC2 [SPIRAMIDE]
qualitative_label: b0
--
molecule: Cn1cc(-c2[nH]c3cc(NC(=O)[C@H](N)C4CCCCC4)cc4c3c2C=NNC4=O)cn1
qualitative_label: b1
--
molecule: OC1(c2ccc(Cl)cc2)CCN(Cc2c[nH]c3ccccc23)CC1
qualitative_label: b2
--
molecule: C=CC(=O)Nc1ccc2ncnc(Nc3ccc(OCc4cccc(F)c4)c(Cl)c3)c2c1.Cc1ccc(S(=O)(=O)O)cc1
qualitative_label: b0
--
molecule: CC(C)NCC(O)COc1ccc(CCOCC2CC2)cc1.Cl (centres undefined) [BETAXOLOL HYDROCHLORIDE]
qualitative_label: b1
--
molecule: COc1ncc(-c2ccc3nccc(-c4ccnnc4)c3c2)cc1NS(=O)(=O)c1ccc(F)cc1F
qualitative_label: b0
--
molecule: COc1cc2nccc(Oc3ccc(NC(=O)Nc4cc(C)on4)c(Cl)c3)c2cc1OC.O
qualitative_label: b2
--
molecule: CNc1nc(NCc2ccc(NS(C)(=O)=O)cc2Cl)cc(-c2ccccn2)n1
qualitative_label: b1
--
molecule: CC[C@H](C)C(=O)O[C@H]1C[C@@H](C)C=C2C=C[C@H](C)[C@H](CC[C@@H]3C[C@@H](O)CC(=O)O3)[C@H]21
qualitative_label: b0
--
molecule: c1cn2cc(-c3ccc4cn[nH]c4c3)nc(Nc3ccc(N4CCOCC4)cc3)c2n1
qualitative_label: b1
--
molecule: CN(C)C(=O)/C(C#N)=C/c1ccc(-c2nc3cnc4[nH]ccc4c3n2C2CCCCC2)o1
qualitative_label: b1
--
molecule: CN1CCN(c2ccc(OC(F)(F)F)c(Nc3ncc4c(n3)-c3c(c(C(N)=O)nn3CCO)CC4)c2)CC1
qualitative_label: b1
--
molecule: CN(C)C(=O)N[C@H]1CC[C@H](CCN2CCN(c3cccc(Cl)c3Cl)CC2)CC1.Cl [CARIPRAZINE HYDROCHLORIDE]
qualitative_label: b2
--
molecule: C=CC(=O)Nc1cc2c(Nc3ccc(F)c(Cl)c3)ncnc2cc1OCCCN1CCOCC1.Cl.Cl [CANERTINIB DIHYDROCHLORIDE]
qualitative_label: b0
--
molecule: Cc1nc(-c2cn3c(n2)-c2ccc(-c4cnn(C(C)(C)C(N)=O)c4)cc2OCC3)n(C(C)C)n1
qualitative_label: b0
--
molecule: Cc1[nH]c(/C=C2\C(=O)Nc3ccc(S(=O)(=O)N(C)c4cccc(Cl)c4)cc32)c(C)c1C(=O)N1CCN(C)CC1
qualitative_label: b2
--
molecule: Cl.N#Cc1ccc2[nH]cc(CCCCN3CCN(c4ccc5oc(C(N)=O)cc5c4)CC3)c2c1 [VILAZODONE HYDROCHLORIDE]
qualitative_label: b1
--
molecule: C[C@@H](NCCCc1cccc(C(F)(F)F)c1)c1cccc2ccccc12.Cl [CINACALCET HYDROCHLORIDE]
qualitative_label: b2
--
molecule: C=CC(=O)Nc1cccc(C(=O)Nc2ccc(Nc3cc(-c4[nH]c(SC)nc4C)ccn3)cc2)c1
qualitative_label: b0

Taken from ChEMBL document CHEMBL4689842.
